FYI, the data here is from ChEMBL document CHEMBL3351839.

species on record: Rattus norvegicus; assay: Toxicity in streptozotocin induced diabetic Albino Wistar rat model assessed as induction of centrizonal triad inflammation measured 5 hrs post dose by haematoxylin and eosin staining based microscopy; type: organism-based; settings: in vivo
observed property: Activity

# annotated cases, reported Activity shown
O=C1NC(=O)/C(=C\c2ccccc2OCc2nnc(-c3ccccc3)o2)S1 ... Non-toxic
CCc1ccc(CCOc2ccc(CC3SC(=O)NC3=O)cc2)nc1 (stereo not given) ... Toxic
O=C1NC(=O)/C(=C\c2ccccc2OCc2nnc(COc3ccc(Cl)cc3Cl)o2)S1 ... Non-toxic
COc1cc(/C=C2/SC(=O)NC2=O)ccc1OCc1nnc(-c2ccc(Br)cc2)o1 ... Non-toxic

Alright, here's another compound for you.
Query: Reported Activity for COc1cc(/C=C2/SC(=O)NC2=O)ccc1OCc1nnc(-c2ccccc2)o1 : what is it?
Response: Non-toxic

====

biological target: Voltage-gated inwardly rectifying potassium channel KCNH2 (Homo sapiens, UniProt Q12809)
Sequence (Q12809 whole entry): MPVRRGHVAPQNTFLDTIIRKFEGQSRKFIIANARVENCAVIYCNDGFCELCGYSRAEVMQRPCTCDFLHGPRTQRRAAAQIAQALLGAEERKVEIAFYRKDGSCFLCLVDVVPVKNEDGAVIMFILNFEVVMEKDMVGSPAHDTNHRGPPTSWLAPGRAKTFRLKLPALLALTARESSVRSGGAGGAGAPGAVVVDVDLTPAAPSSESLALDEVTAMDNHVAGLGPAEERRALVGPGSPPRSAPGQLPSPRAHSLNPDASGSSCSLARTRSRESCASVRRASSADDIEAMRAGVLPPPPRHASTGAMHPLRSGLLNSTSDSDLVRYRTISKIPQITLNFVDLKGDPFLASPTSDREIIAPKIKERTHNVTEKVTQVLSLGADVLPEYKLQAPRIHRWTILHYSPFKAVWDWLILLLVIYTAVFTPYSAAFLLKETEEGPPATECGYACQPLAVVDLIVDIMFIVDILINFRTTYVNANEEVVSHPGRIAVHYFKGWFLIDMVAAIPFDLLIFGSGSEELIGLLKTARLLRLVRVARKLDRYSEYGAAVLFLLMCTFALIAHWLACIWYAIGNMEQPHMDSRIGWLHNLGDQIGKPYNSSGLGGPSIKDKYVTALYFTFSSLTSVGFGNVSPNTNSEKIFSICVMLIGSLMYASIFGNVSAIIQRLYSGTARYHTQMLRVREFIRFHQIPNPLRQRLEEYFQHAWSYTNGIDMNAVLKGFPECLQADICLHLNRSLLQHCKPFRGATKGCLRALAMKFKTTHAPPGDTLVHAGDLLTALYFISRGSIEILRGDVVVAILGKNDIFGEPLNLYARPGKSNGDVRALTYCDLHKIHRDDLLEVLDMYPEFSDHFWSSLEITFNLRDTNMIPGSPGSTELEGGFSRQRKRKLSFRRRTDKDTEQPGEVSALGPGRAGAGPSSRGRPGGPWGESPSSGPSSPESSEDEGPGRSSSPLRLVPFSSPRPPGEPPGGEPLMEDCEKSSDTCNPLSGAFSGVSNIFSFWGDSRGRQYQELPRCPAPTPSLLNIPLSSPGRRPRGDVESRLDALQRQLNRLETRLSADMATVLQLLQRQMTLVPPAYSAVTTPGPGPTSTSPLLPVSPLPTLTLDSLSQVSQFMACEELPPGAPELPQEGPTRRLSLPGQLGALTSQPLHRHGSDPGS
observed property: pIC50
When answering, recall that pIC50 equals minus log10 of the concentration in mol/L, and write that number alone.

Query: Give pIC50 (Voltage-gated inwardly rectifying potassium channel KCNH2 (Homo sapiens, UniProt Q12809)) of the following compound: O=C1NC(=O)/C(=C\c2ccccc2OCc2nnc(COc3ccc(Cl)cc3Cl)o2)S1
Response: 4.54

====

organism: Rattus norvegicus; assay: Hepatoprotective effect in streptozotocin induced diabetic Albino Wistar rat model assessed as reduction in serum AST level; assay type: functional, organism-based
Activity calls are given as the source filed them. The calls are words filed in the database; no cut-off is given here.
observed property: Activity

Answered examples (4):
COc1cc(/C=C2/SC(=O)NC2=O)ccc1OCc1nnc(-c2ccccc2)o1 ... Active
O=C1NC(=O)/C(=C\c2ccccc2OCc2nnc(-c3ccccc3)o2)S1 ... Active
O=C1NC(=O)/C(=C\c2ccccc2OCc2nnc(COc3ccc(Cl)cc3Cl)o2)S1 ... Active
CCc1ccc(CCOc2ccc(CC3SC(=O)NC3=O)cc2)nc1 (stereo not given) ... Active

// moving on: another record for Activity
Query: Item under review: COc1cc(/C=C2/SC(=O)NC2=O)ccc1OCc1nnc(-c2ccc(Br)cc2)o1 . Reported Activity?
Response: Active

====

species on record: Rattus norvegicus; experiment: Toxicity in streptozotocin induced diabetic Albino Wistar rat model assessed as induction of sinusoidal space dilation measured 5 hrs post dose by haematoxylin and eosin staining based microscopy; type: organism-based; settings: in vivo
observed property: Activity

The following compounds have reported results that may help.
COc1cc(/C=C2/SC(=O)NC2=O)ccc1OCc1nnc(-c2ccccc2)o1 ... Non-toxic
O=C1NC(=O)/C(=C\c2ccccc2OCc2nnc(COc3ccc(Cl)cc3Cl)o2)S1 ... Non-toxic
O=C1NC(=O)/C(=C\c2ccccc2OCc2nnc(-c3ccccc3)o2)S1 ... Non-toxic
COc1cc(/C=C2/SC(=O)NC2=O)ccc1OCc1nnc(-c2ccc(Br)cc2)o1 ... Non-toxic

Moving on to the next compound.
Query: # get_value(readout='Activity', item= CCc1ccc(CCOc2ccc(CC3SC(=O)NC3=O)cc2)nc1 (stereo not given) [PIOGLITAZONE] )
Response: Toxic
